Exercise: for every item that follows, state its recorded inhibition at 1 µM.
# tgt: hERG channels (Homo sapiens (Human), UniProt Q12809)
# Sequence (Q12809 whole entry): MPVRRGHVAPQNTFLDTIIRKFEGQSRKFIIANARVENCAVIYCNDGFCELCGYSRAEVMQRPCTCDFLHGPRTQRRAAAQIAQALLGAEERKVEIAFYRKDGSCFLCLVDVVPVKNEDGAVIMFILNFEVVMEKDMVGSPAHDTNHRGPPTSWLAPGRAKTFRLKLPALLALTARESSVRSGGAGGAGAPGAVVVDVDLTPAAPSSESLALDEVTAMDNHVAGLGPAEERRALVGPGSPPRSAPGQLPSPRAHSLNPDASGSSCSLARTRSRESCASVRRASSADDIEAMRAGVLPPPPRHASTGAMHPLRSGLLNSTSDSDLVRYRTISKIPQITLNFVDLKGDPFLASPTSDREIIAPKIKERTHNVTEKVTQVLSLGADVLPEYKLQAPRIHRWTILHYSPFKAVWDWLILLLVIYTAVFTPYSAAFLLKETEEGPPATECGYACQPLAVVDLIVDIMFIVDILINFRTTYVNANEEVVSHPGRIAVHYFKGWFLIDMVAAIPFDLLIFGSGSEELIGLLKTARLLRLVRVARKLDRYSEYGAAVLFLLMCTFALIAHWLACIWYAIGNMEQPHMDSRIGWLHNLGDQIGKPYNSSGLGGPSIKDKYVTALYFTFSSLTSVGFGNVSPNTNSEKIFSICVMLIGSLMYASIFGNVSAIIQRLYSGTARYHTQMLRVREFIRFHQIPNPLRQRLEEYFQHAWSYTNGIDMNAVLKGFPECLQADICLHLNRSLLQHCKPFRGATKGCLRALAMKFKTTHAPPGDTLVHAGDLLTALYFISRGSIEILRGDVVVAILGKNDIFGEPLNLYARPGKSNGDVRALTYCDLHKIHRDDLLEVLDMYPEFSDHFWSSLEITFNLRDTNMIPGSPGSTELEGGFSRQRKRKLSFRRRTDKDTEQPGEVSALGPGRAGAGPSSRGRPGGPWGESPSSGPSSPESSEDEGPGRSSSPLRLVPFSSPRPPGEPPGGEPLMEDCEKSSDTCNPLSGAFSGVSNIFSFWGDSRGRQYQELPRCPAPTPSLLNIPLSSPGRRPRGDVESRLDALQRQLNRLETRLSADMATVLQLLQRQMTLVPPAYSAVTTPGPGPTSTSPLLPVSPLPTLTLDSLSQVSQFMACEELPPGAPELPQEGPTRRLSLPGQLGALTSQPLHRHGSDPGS
# assay details: hERG Manual Patch Clamp Assay (HEK 293 cells stably expressing hERG channels)
# Assay type: cell-based
# measurement setup: human, HEK 293 cells stably expressing hERG channels, pH 7.4
Report only the number, with the unit % understood.

INPUT: In one line, give reported inhibition at 1 µM of the entry `Cc1nn(-c2ccc(CNC[C@H](O)c3ccc4c(c3C)COC4=O)cn2)cc1C#N` .
OUTPUT: 36

INPUT: In one line, give reported inhibition at 1 µM of the entry `COc1c(CNC[C@H](O)c2ccc3c(c2C)COC3=O)cnn1-c1cc(C)c(C#N)cn1` .
OUTPUT: 91

INPUT: In one line, give reported inhibition at 1 µM of the entry `Cc1c([C@@H](O)CNCc2cnc(-n3cnc(C#N)c3)nc2)ccc2c1COC2=O` .
OUTPUT: 74

INPUT: In one line, give reported inhibition at 1 µM of the entry `COc1cc(-n2cc(CNC[C@H](O)c3ccc4c(c3C)COC4=O)nn2)ncc1C#N` .
OUTPUT: 10

INPUT: In one line, give reported inhibition at 1 µM of the entry `Cc1cc(-n2cc(CNC[C@H](O)c3ccc4c(c3C)COC4=O)c3cccnc32)ncc1C#N` .
OUTPUT: 79

INPUT: In one line, give reported inhibition at 1 µM of the entry `CCN(Cc1ccc(-c2ccc3oc(=O)n(C)c3c2)nc1)C[C@H](O)c1ccc2c(c1C)COC2=O` .
OUTPUT: 51

INPUT: In one line, give reported inhibition at 1 µM of the entry Cc1c([C@@H](O)CNCc2cnn(-c3cc(F)c4oc(=O)n(C)c4c3)c2)ccc2c1COC2=O (single isomer, unassigned) .
OUTPUT: 20

INPUT: In one line, give reported inhibition at 1 µM of the entry `Cc1cc(-n2cc(CNC[C@H](O)c3ccc4c(c3C)COC4=O)cn2)nc(C)c1C#N` .
OUTPUT: 39

INPUT: In one line, give reported inhibition at 1 µM of the entry Cc1c(C(O)CN(C)Cc2ccc(-c3ccc4oc(=O)n(C)c4c3)nc2)ccc2c1COC2=O (stereo not shown) .
OUTPUT: 8.7

INPUT: In one line, give reported inhibition at 1 µM of the entry `COc1cc(-n2cc(CNC[C@H](O)c3ccc4c(c3C)COC4=O)nc2C)ncc1C#N` .
OUTPUT: 13

INPUT: In one line, give reported inhibition at 1 µM of the entry `Cc1cn(-c2ncc(CNC[C@H](O)c3ccc4c(c3C)COC4=O)cn2)nc1C#N` .
OUTPUT: 13

INPUT: In one line, give reported inhibition at 1 µM of the entry `Cc1cn(-c2ccc(CNC[C@H](O)c3ccc4c(c3C)COC4=O)cn2)nn1` .
OUTPUT: 16

INPUT: In one line, give reported inhibition at 1 µM of the entry `Cc1c([C@@H](O)CNCc2cnn(-c3ccc4c(c3C)COC4=O)c2)ccc2c1COC2=O` .
OUTPUT: 4.3

INPUT: In one line, give reported inhibition at 1 µM of the entry `Cc1c([C@@H](O)CNCc2cccc(-c3ccc4oc(=O)n(C)c4c3)n2)ccc2c1COC2=O` .
OUTPUT: 59

INPUT: In one line, give reported inhibition at 1 µM of the entry `Cc1c([C@@H](O)CNCc2cnn(-c3cccc(C#N)c3)c2)ccc2c1COC2=O` .
OUTPUT: 48

INPUT: In one line, give reported inhibition at 1 µM of the entry `COc1cc(-n2cc(CNC[C@H](O)c3ccc4c(c3C)COC4=O)cn2)ncc1C#N` .
OUTPUT: 77
